Data origin, for the record: ChEMBL document CHEMBL4513216

Tested on: Plasmodium berghei
Test: Screen against P. berghei liver stage (PbLuc), transformed with Luciferase, at 2uM
Assay type: functional, HepG2
Details: tested at 2 uM
Hit rate of the full screen: of about 68,000 compounds, about 2,700 (4%) showed an effect of 50% or more. This is one part of a sample in which strong results are shown more often than they occur.
Could you please report measured INHIBITION for the items listed next?
State the value, then name its unit.

> print(dat)
                                   compound  observedmeasurement
1    OC1CCN(Cc2c(-c3ccco3)[nH]c3ncccc23)CC1                8.09%
2           O=C(O)c1ccnc(SCC(=O)c2ccccc2)c1               25.23%
3  Cc1nc(CN(C)C2CCN(CC3CCC3)C2)no1 (configuration not stated)               15.28%
4  CC(CC(=O)Nc1ncn(CC(=O)N2CCCCCC2)n1)C1CC1 (configuration not stated)               34.73%
5  NC(=O)C1(CCCc2ccccn2)CCCN(CCO)C1 (configuration not stated)               -17.3%

List reported INHIBITION for each of these compounds:
1. Cc1ccc(N2CCCC(N(C)Cc3cc(C)on3)C2)nn1 (configuration not stated)
2. Cc1nc(CN(C)C2CCN(Cc3nc4ccccc4n3C)C2)no1 (configuration not stated)
3. Cc1cn2c(n1)CCC(NC(=O)c1cc(Br)cn1C)C2 (configuration not stated)
4. CC(c1cccnc1)N(C)Cc1ccccn1 (configuration not stated)
5. Cc1nc(CN(C)C2CCN(Cc3ccc4ccccc4n3)C2)no1 (configuration not stated)
6. O=C(O)c1cc(NS(=O)(=O)c2cccc(Cl)c2F)ccc1Cl
7. NC(=O)CN1CCCC(CCCc2ccccn2)(C(N)=O)C1 (configuration not stated)

["-1.21%", "-2.87%", "-2.1%", "-18.23%", "55.7%", "36.65%", "12.8%"]

List the reported INHIBITION of each compound below.
1. CC(=O)c1c(C)nn(S(=O)(=O)c2ccc(Cl)cc2)c1C
2. CCc1n[nH]c(C2CN(Cc3csc(COC)n3)CCO2)n1 (configuration not stated)
3. CN(C)Cc1ccccc1CN(C)C(=O)c1ccoc1
4. Cc1cc(CN(C)C(C(=O)O)c2cccc(C(F)(F)F)c2)on1 (configuration not stated)
5. Cc1cc(CN(C)C2CCCN(c3cccnn3)C2)on1 (configuration not stated)
6. Cc1cc(-n2nnc(C(=O)O)c2-c2ccncc2)ccc1F
7. Cc1cn[nH]c1C1CCCCN1C(=O)CCc1c(C)n[nH]c1C (configuration not stated)

["11.8%", "12.58%", "16.49%", "-53%", "13.35%", "-37.39%", "5.34%"]

Record INHIBITION per entry; entries follow.
1. Cc1nc(CN(C)C2CCN(CCCc3ccccc3)C2)no1 (configuration not stated)
2. COCCN1CCCC(CCCc2ccccn2)(C(N)=O)C1 (configuration not stated)
3. CN1CCOC(CNCC(=O)NCCc2ccc(F)cc2)C1 (configuration not stated)

1. 16.25%
2. 55.74%
3. -8.14%
